molecular target: DRB1*0301 (Homo sapiens, UniProt P01903+P01911, A100K/A102G/A103R/A169T/F55Y/I96L/K41T/L162R/M171V/P40S/Q125H/Q178H/Q39Y/R42S/S66N/T106N/T262R/W38E/Y61H); assay: biochemical; type: binding
Sequence (P01903 26-254 limits assumed, other chains not shown): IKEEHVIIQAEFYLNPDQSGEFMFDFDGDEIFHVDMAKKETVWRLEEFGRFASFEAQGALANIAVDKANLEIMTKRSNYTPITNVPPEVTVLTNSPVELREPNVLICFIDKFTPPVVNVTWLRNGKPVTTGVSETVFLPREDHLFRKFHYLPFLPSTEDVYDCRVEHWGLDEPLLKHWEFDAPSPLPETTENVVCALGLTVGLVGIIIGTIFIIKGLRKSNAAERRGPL
No end group written: not given here.
// values below are reported IC50
Please reply with the bare figure in nM and do not write the unit itself.

biosequence | IC50, nM
AQEVHNDAQVLHVLK [Peptide 90.0047] | 21
EIYIIEEDTCTMVTG [Peptide 90.0203] | 273
YENDSTDLRDHIDYW [Peptide 1601.01] | 15800
MLAVFKDTYGLSFTD [Peptide 90.0050] | 45
LNTVKIPNTVSVSTG [Peptide 89.0178] | 65
DHDITDDSDIAYKYA [Peptide 90.0117] | 100

*Q* I would be grateful if you could share the reported IC50 for GGDWKQIVMFLRYQG [Peptide 89.0013] .
*A* 6320

*Q* Also, KIGMLDDATVPCWNY [Peptide 90.0040] please.
*A* 160

*Q* Would you mind doing WQLIRLENAILFTAR [Peptide 90.0211] as well?
*A* 41

*Q* Entry to check: FIHFLQGAIISFVNS [Peptide 89.0088]
*A* 4390

*Q* // same read-out, input: IVHLKGDPNSLKCLR [Peptide 90.0255]
*A* 42
